test system: HUVEC; test: HUVEC assay, basal endothelial cell proliferation; assay type: cell-based; settings: Homo sapiens, read-out: IC50 for inhibition of basal endothelial cell proliferation
reported.property: IC50

# test.smiles, observed.measurement
records = [
    ("COc1cc2c(Oc3ccc4[nH]c(C)cc4c3F)ncnc2cc1OCCCN1CCCC1", "> 500 nM"),
]
